The following sequences are listed with their measured pull-down binding Z-score values.
Test system: TO-N3-2 (biotin conjugate)
Assay: pull-down binding Z-score (relative to library population); higher = stronger binding
Details: RNA library: Library-2
Give a plain numeric answer without units written out.

Answered cases to consult:
entry sequence | pull-down binding Z-score
AUUGGCGACCCUGCUCAAU [DMSMaPseq_invitro_SARS-CoV-2_Motif_311] | -0.232
UAUUUUGUUAUUCUGGUCACAGAAUGACCUAGUA [hsa-mir-630] | -1.11
GGUGUUUUAACU | -0.847
UGUUGAGCGCAGUAAGACAACA [hsa-mir-3529] | -0.0925
GGAAUGGAUCCC [IAV_invivo_NP_5_Motif_9+IAV_invivo_NP_5_Motif_9] | -0.367

query: Using the record for AUUUGCCAUCACCUUUACCUUUAAUGGCAAAA [hsa-mir-548av] , report its pull-down binding Z-score.
result: -0.906

query: Same lookup for CAUGUAUGUGUAUAUACAUAUAUAUG [hsa-mir-297] , please.
result: -0.648

query: Input GGGAAGGAGAAGGGACGCUUCCC [hsa-mir-3127]
result: 0.895

query: What do you get for `GUUCAGAGUUUAUUCUAGUGCGAAUAAUUGCACUUUUGAAUAUGUCUCUCAGC` ?
result: -0.426

query: Consider next the sequence UCAGCUGUGAGCUCAAGGUGGCUGG [hsa-mir-30c-1] in the same way.
result: 0.98

###

System: TO-N3-2 (biotin conjugate)
Experiment: pull-down binding Z-score (relative to library population); higher = stronger binding
Details: RNA library: Library-2
Please enter Satisfied where pull-down binding Z-score is greater than or equal to 0.2, and Not satisfied where it is lower.

entry sequence | answer label
GGGAGCAUGAACAAUGUUUCUCACUCCC [hsa-mir-3162] | Satisfied
GUCCUGACUGCGUGCCAGGGGC [hsa-mir-3650] | Satisfied
CCUGCAGCCCCCAGGUGGGGGG [hsa-mir-4271] | Satisfied
UCAUCAGGAGAUGCCACAACUGCUUAUGCUAAUAGUGUUUUUAACAUUUGUCAAGCUGUCACGGCCAAUGUUAAUGCACUUUUAUCUACUGAUGG [DMSMaPseq_invitro_SARS-CoV-2_Multi_45_ComplexLevel_1] | Not satisfied
UGCUCAGUGGAGUUAUUUUGAGCA [hsa-mir-4495] | Not satisfied
GAUUGAAGUUGAAUAGUGC [hsa-mir-3161] | Not satisfied

query: Determine whether measured pull-down binding Z-score meets or exceeds 0.2 for AAGGUAAGAGGGAUACUUACCUG [U1snRNP5ss-26]
result: Not satisfied

query: And what about the sequence GCGUCGCUUCUCCCUAAUGUUGCC [hsa-mir-6781] ?
result: Satisfied

query: Same lookup for AAGUGGAGCAGGAAUGCGCUUUUCUCCACUG [hsa-mir-5187] , please.
result: Satisfied

query: Here is the next sequence: UGUGGUUGGGGCCAUGGCGGGUGGGCAGCCCAGCCUCUGAGCCUUCCU [hsa-mir-1238]
result: Satisfied

###

Test system: TO-3-N3 (biotin conjugate)
Experiment: pull-down binding Z-score (relative to library population); higher = stronger binding
Conditions: RNA library: Library-2
Overview of recorded pull-down binding Z-score for various sequences

Here is how some sequences turned out for pull-down binding Z-score.
entry sequence | value kind | observed value
GUGCGUAUAAAGAUUGUACAAAUGUUAAGUGACACACUUAAAAAUCUCUCUGACAGAGUCGUAUUUGUCUUAUGGGCAC [DMSMaPseq_invitro_SARS-CoV-2_Multi_54_ComplexLevel_1] | pull-down binding Z-score | -1.04
GGCUCCUGGCGCUGAUGCC [hsa-mir-6886] | pull-down binding Z-score | 0.85
GUUCAGAGUUUAUUCUAGUGCGAAUAAUUGCACUUUUGAAUAUGUCUCUCAGC | pull-down binding Z-score | -0.177

query: pull-down binding Z-score for CUGUGAGGACAUCCAGGGUCACAG [hsa-mir-125a] ?
result: 0.423

###

Tested on: TO-N3-2 (biotin conjugate)
Assay: pull-down binding Z-score (relative to library population); higher = stronger binding
Settings: RNA library: Library-2
Assign classes using reported pull-down binding Z-score values and the ranges low value: < -0.5; medium value: ≥ -0.5 and < -0.09; high value: ≥ -0.09, please.

Consider the following illustrative entries.
entry sequence | answer label
GAAAUACUUGUCACAUACAAUUGUUGUGAUGAUGAUUAUUUC | low value
CGCUGAUGUGCAUUCAACUCAUUCUCAGCA [hsa-mir-1468] | high value
GUCUCGCACCCGCGAGAU [IAV_invivo_PB2_1_Motif_2+IAV_invivo_PB2_1_Motif_2] | low value
UAAAUAAGGGACACUUUGAUGGACAACAGGGUGAAGUACCAGUUUCUAUCAUUAAUAACACUGUUUACACAAAAGUUGAUGGUGUUGAUGUAGAAUUGUUUG | medium value
GUGGCUAAUCAGCUGAUGGUGCCAC [hsa-mir-4715] | low value

query: Lab note: which band did GGAGAGUGUUCAGACAUUCUUU [SHAPE_invitro_SARS-CoV-2_Motif_44] land in?
result: low value

query: Field entry: CGAGUCUCUGAAACUCUACAGAGAUUCG [IAV_invivo_NS1_NEP_8_Motif_12+IAV_invivo_NS1_NEP_8_Motif_12]
result: low value

query: Again, but for `CUGUUGAUUCAUCACAG`
result: medium value

###

Readings of pull-down binding Z-score for the listed sequences
Test system: TO-3-N3-2 (biotin conjugate)
Test: pull-down binding Z-score (relative to library population); higher = stronger binding
Conditions: RNA library: Library-2
Number only, no unit.

query: Dear colleague, I am looking for the recorded pull-down binding Z-score of the following sequence: CGAGACACAGAAACAGACACCUGCCCUCGA [hsa-mir-151b]
result: 0.464

query: Same question for UCAUUUUCCUUAAAAAAUGA [hsa-mir-3128] please.
result: -0.469

query: Entry to check: `UGUGUGAUAUCAGACA`
result: -0.703

query: How about UGCAGUUCUGUUGGGUGACAGCA [hsa-mir-6499] ?
result: -0.0248

query: GCGCUGCCAGAAACUGGCUUGAGCGC [bulge-UUG] ?
result: 0.543

query: Lookup GAGAACUCACGGUGCCUGUGGUUCGA [hsa-mir-3125]
result: -0.203

query: Please answer likewise for `GUGCUAAGCAC`
result: -0.435

query: What do we get for GAAGCUGUAAGGUGUUCAGAGGAGCUUU [hsa-mir-30e] ?
result: 0.908

query: How about GGGGUGUACAUCAAUACUGCCUU [IAV_invivo_PA_3_Motif_19+IAV_invivo_PA_3_Motif_19] ?
result: 0.332

query: Same read-out for `ACCAUUGGUAGAUUUGCCAAUAGGU` ?
result: -0.848

query: // next record `UGUUGGCAUCAUUCUAUUGGAUUUGAUUACGUCUAUAAUCCGUUUAUGAUUGAUGUUCAACA`
result: -0.183

###

Tested on: G-clamp-N3 (biotin conjugate)
Test: pull-down binding Z-score (relative to library population); higher = stronger binding
Conditions: RNA library: Library-1 (pre-miRNA loops + repeats)
value kind: pull-down binding Z-score
Lab note: write the figure by itself, no unit.

Use the examples below as a reference point.
entry sequence | study system | pull-down binding Z-score
CAAUCAUGUGUAAUUAGAUAUGAUUG [hsa-mir-514b] | G-clamp-N3 (biotin conjugate) | 0.559
GCCAGACAUGCUCUUGC [hsa-mir-6894] | G-clamp-N3 (biotin conjugate) | -1.34

query: Entry GGAGUUGAUGCACAGUUAUCCAGCUCC [hsa-mir-337] : reported pull-down binding Z-score = ?
result: -0.406

query: Check AAUUGGCUUUUACAAAAGACCAACU [hsa-mir-4798] too.
result: 0.914

query: How about UAUUGGGCCAAUUCCCCCAAUG [hsa-mir-4781] ?
result: -1.57

query: Field entry: GGCGCUGUCUUGAGACAUUCGCGCAGUGCA [hsa-mir-3177]
result: -0.296

query: Also, GCGGGGGUGGGGGCCUCGCCCUGCUUGGGCCCUCCCUGAC [hsa-mir-6821] please.
result: 0.419

query: Repeat for the following sequence: GGCUGGGGUCACUGACUCUGCUUCCCCUGCC [hsa-mir-6799]
result: -0.448

query: Now consider UGGCACAGAUCCAAUACCUUCUGUCCCC [hsa-mir-6810] .
result: -0.424

query: Thanks! And UUAAAUGUGUCAUUUAAAAAUUCAG [hsa-mir-1972-1_1972-2] ?
result: -1.87

query: Next: UGCCUUGUAGCAUUCAGGUCAAGCA [hsa-mir-103a-2]
result: 0.0735

###

Each entry below lists one item and its recorded pull-down binding Z-score value.
System: TO-3-N3-2 (biotin conjugate)
Experiment: pull-down binding Z-score (relative to library population); higher = stronger binding
Settings: RNA library: Library-2
Could you respond with only the numeric value?

query: pull-down binding Z-score lookup needed for CAGUGAGCCAAGAUCGUGCCACUG [hsa-mir-1273d] , thanks.
result: -0.179

These measurements were taken from the supplement of paper PMC11865577.
